Ref: patent US8609833B2

- studySystem: human recombinant A1 adenosine receptor (Homo sapiens (Human), UniProt P30542)
- Sequence (P30542 whole entry): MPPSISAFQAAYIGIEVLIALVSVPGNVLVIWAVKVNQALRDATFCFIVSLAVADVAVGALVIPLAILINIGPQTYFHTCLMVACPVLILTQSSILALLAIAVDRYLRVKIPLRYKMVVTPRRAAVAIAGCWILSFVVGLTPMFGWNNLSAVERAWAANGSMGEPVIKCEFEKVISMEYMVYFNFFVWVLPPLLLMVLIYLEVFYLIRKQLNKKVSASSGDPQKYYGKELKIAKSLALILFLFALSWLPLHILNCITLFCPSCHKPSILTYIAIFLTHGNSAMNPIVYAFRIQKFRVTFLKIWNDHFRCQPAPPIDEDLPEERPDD
- testDetails: Adenosine A1 receptor binding, displacement of [3H]CCPA
- testSettings: displacement of specific [3H]CCPA binding, CHO cells; geometric mean
quantity: Ki (nM)
Give the quantity in nM, number only.

INSERT INTO assay_data (molecule, unitofmeasurement, testvalue) VALUES
  ('Nc1ncnc2c1ncn2[C@@H]1O[C@H](CO[N+](=O)[O-])[C@@H](O)[C@H]1O [Compound 18]', 'nM', 5.79);

We now examine a further molecule.
Recorded Ki (molecule Nc1nc(Cl)nc2c1ncn2[C@@H]1O[C@H](CO[N+](=O)[O-])[C@@H](O)[C@H]1O [Compound 19] ): 7

###

- studySystem: human recombinant A3 adenosine receptor (Homo sapiens (Human), UniProt P0DMS8)
- Sequence (P0DMS8 whole entry): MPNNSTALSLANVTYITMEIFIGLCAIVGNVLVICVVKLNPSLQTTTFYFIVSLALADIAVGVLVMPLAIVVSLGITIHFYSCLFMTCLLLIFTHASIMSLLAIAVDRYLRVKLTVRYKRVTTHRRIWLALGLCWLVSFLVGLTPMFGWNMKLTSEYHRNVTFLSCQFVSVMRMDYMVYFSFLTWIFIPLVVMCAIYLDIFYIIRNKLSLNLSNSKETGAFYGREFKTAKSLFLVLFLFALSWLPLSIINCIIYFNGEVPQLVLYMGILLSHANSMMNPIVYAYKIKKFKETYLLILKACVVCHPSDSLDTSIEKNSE
- testDetails: Adenosine A3 receptor binding, displacement of [3H]NECA
- testSettings: displacement of specific [3H]NECA binding, HEK cells; geometric mean
quantity: pKi
Entry type: numeric. Quantity: pKi, the -log10 of concentration in molar units.

Field: example entries. Status: answers known.
INSERT INTO assay_data (compound, testvalue) VALUES
  ('Nc1nc(Cl)nc2c1ncn2[C@@H]1O[C@H](CO[N+](=O)[O-])[C@@H](O)[C@H]1O', 6.05),
  ('O=[N+]([O-])OC[C@H]1O[C@@H](n2cnc3c(NC4CCOC4)ncnc32)[C@H](O)[C@@H]1O (stereo partly shown)', 5.69),
  ('Nc1ncnc2c1ncn2[C@@H]1O[C@H](CO[N+](=O)[O-])[C@@H](O)[C@H]1O', 6.67);

We now examine a further compound.
Recorded pKi (compound "O=[N+]([O-])OC[C@H]1O[C@@H](n2cnc3c(NC4CCCC4)ncnc32)[C@H](O)[C@@H]1O" ): 6.15

###

# key: entry, value: Ki
- studySystem: human recombinant A2A adenosine receptor (Homo sapiens (Human), UniProt P29274)
- Sequence (P29274 whole entry): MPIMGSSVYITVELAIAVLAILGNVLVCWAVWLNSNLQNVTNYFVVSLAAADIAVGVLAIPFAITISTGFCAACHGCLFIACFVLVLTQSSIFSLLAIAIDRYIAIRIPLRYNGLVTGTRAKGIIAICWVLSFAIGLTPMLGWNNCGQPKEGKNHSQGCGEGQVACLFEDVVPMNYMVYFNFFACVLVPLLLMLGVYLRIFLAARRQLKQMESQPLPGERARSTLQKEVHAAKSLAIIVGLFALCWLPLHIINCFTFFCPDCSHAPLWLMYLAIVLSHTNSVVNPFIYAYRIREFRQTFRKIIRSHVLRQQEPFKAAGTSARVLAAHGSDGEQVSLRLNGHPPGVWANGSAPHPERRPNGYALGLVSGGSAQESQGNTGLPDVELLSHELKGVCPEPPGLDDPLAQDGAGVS
- testDetails: Adenosine A2A receptor binding, displacement of [3H]NECA
- testSettings: displacement of specific [3H]NECA binding, CHO cells; geometric mean
Give the quantity in µM, number only.

INSERT INTO measurements (smilesinput, testvalue) VALUES
  ('O=[N+]([O-])OC[C@H]1O[C@@H](n2cnc3c(NC4CCCC4)nc(Cl)nc32)[C@H](O)[C@@H]1O', 4.19),
  ('Nc1ncnc2c1ncn2[C@@H]1O[C@H](CO[N+](=O)[O-])[C@@H](O)[C@H]1O', 0.951),
  ('O=[N+]([O-])OC[C@H]1O[C@@H](n2cnc3c(NC4CCCC4)ncnc32)[C@H](O)[C@@H]1O', 4.69);

We now examine a further compound.
For "Nc1nc(Cl)nc2c1ncn2[C@@H]1O[C@H](CO[N+](=O)[O-])[C@@H](O)[C@H]1O" on human recombinant A2A adenosine receptor (Homo sapiens (Human), UniProt P29274), measured Ki was 10
